- protocol_description: Cytotoxicity against MDCK cells by MTS assay
- Format: cell-based, Canis lupus familiaris
- condition_set: dog, MDCK cells
parameter: CC50

>>> measurement("NC12CC3CC(CC(C3)C1)C2 [AMANTADINE]")
"> 1000 µg/mL"

====

Catalogue of selectivity ratio readings, one per entry.
- protocol_description: Selectivity index, ratio of minimum concentration required to cause microscopically detectable alteration in human HEL cells to EC50 for acyclovir-resistant TK deficient Herpes simplex virus-1 KOS
- Assay type: toxicity, cell-based
- condition_set: read-out: Selectivity Index
parameter: selectivity ratio

>>> measurement("O=c1c2ccccc2nc(-c2ccccc2)n1/N=C/c1ccccc1O")
100
>>> measurement("O=c1c2ccccc2nc(-c2ccccc2)n1/N=C/c1ccccc1")
11
>>> measurement("COc1ccc(/C=N/n2c(-c3ccccc3)nc3ccccc3c2=O)cc1")
11

====

- protocol_description: Cytotoxicity against human HeLa cells assessed as minimum concentration required to cause microscopically detectable alteration after 2 days
- Format: cell-based
- condition_set: read-out: Activity
Catalogue of MCC at 48 h readings, one per entry.
parameter: MCC at 48 h (µg/mL)

>>> measurement("O=c1c2ccccc2nc(-c2ccccc2)n1/N=C/c1ccc(Cl)cc1")
20
>>> measurement("O=c1c2ccccc2nc(-c2ccccc2)n1/N=C/c1ccc(O)cc1")
100
>>> measurement("O=c1c2ccccc2nc(-c2ccccc2)n1/N=C/c1ccccc1")
20
>>> measurement("O=c1c2ccccc2nc(-c2ccccc2)n1/N=C/c1cccc([N+](=O)[O-])c1")
20
>>> measurement("COc1ccc(/C=N/n2c(-c3ccccc3)nc3ccccc3c2=O)cc1")
20
>>> measurement("O=c1c2ccccc2nc(-c2ccccc2)n1/N=C/c1ccccc1O")
4

====

- protocol_description: Selectivity index, ratio of minimum concentration required to cause microscopically detectable alteration in human HEL cells to EC50 for acyclovir-resistant TK deficient Vaccina virus
- Format: toxicity, cell-based
- condition_set: read-out: Selectivity Index
parameter: selectivity ratio

>>> measurement("O=c1c2ccccc2nc(-c2ccccc2)n1/N=C/c1ccccc1O")
125
>>> measurement("O=c1c2ccccc2nc(-c2ccccc2)n1/N=C/c1ccccc1")
11
>>> measurement("COc1ccc(/C=N/n2c(-c3ccccc3)nc3ccccc3c2=O)cc1")
11

====

- System: MDCK
- protocol_description: Cytotoxicity against MDCK cells by MTS assay
- Type: cell-based, Canis lupus familiaris
- condition_set: dog, mdck
Label condition met when CC50 < 20 µg/mL; otherwise condition not met.

>>> label_class("COc1ccc(/C=N/n2c(-c3ccccc3)nc3ccccc3c2=O)cc1O")
"condition not met"
>>> label_class("O=c1c2ccccc2nc(-c2ccccc2)n1/N=C/c1ccc(O)cc1")
"condition met"
>>> label_class("COc1ccccc1/C=N/n1c(-c2ccccc2)nc2ccccc2c1=O")
"condition met"
>>> label_class("O=c1c2ccccc2nc(-c2ccccc2)n1/N=C/c1ccc(Cl)cc1")
"condition not met"
>>> label_class("O=c1c2ccccc2nc(-c2ccccc2)n1/N=C/c1cccc([N+](=O)[O-])c1")
"condition not met"
>>> label_class("O=c1c2ccccc2nc(-c2ccccc2)n1/N=C/c1ccccc1O")
"condition met"
>>> label_class("C/C(=N\\n1c(-c2ccccc2)nc2ccccc2c1=O)c1ccc(O)cc1")
"condition not met"
>>> label_class("C/C(=N\\n1c(-c2ccccc2)nc2ccccc2c1=O)c1ccccc1")
"condition not met"
>>> label_class("O=c1c2ccccc2nc(-c2ccccc2)n1/N=C/c1ccccc1")
"condition met"
>>> label_class("CC(N)C12CC3CC(CC(C3)C1)C2 (stereo unspecified)")
"condition not met"
>>> label_class("COc1ccc(/C=N/n2c(-c3ccccc3)nc3ccccc3c2=O)cc1")
"condition met"
